Provenance of the data: ChEMBL document CHEMBL1932914

I'd appreciate it if you could supply log10 of EC50 values for the items below.
target: Peroxisome proliferator-activated receptor gamma (Homo sapiens, UniProt P37231)
Sequence (P37231 whole entry): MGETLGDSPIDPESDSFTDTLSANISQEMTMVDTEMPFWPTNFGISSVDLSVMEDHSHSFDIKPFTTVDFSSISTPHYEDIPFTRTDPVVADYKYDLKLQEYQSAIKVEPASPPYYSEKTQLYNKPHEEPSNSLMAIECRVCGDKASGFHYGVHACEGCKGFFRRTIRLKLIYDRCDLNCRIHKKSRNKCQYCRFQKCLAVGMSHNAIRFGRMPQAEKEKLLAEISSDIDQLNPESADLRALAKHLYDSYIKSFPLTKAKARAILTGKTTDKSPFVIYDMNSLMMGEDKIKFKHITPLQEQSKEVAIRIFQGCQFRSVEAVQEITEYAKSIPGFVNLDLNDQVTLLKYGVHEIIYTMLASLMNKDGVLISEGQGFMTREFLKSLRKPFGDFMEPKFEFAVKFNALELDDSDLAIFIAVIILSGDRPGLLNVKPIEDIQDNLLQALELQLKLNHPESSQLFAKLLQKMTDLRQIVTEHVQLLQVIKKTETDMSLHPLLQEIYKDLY
assayOverview: Agonist activity at full length human PPARgamma1 transfected in […] cells co expressing RXRalpha and PPRE after 1 day by luciferase reporter gene transactivation assay
Assay type: functional, cell-based, CHO-K1
protocolConditions: read-out: EC50
All values: log10 EC50 [nM].

Illustrative cases are given below, each with its answer.
CC(C)Oc1cc(CCC(=O)NS(=O)(=O)Cc2ccccc2)n(Cc2ccc(Cl)cc2Cl)n1 2.41
COCCOc1cc(/C=C/C(=O)NS(=O)(=O)CCC(C)C)n(Cc2ccc(C(F)(F)F)cc2Cl)n1 0.95
CCCS(=O)(=O)NC(=O)CCc1cc(OC(C)C)nn1Cc1ccc(Cl)cc1Cl 2.20
CCCCCS(=O)(=O)NC(=O)CCCCc1cc(OCCCC)nn1Cc1ccc(Cl)cc1Cl 1.46
CCCCCS(=O)(=O)NC(=O)CCc1cc(OCc2ccccn2)nn1Cc1ccc(Cl)cc1Cl 2.08
CCCCCS(=O)(=O)NC(=O)CCc1cc(OC(C)C)nn1Cc1ccc(C(F)(F)F)cc1Cl 1.00
CC(C)Oc1cc(CCC(=O)O)n(Cc2ccc(Cl)cc2Cl)n1 2.70
CCCCCS(=O)(=O)NC(=O)CCCc1cc(OCCCC)nn1Cc1ccc(Cl)cc1Cl 1.83

Then this molecule:
Field request: log10 of EC50 | item: CCCCS(=O)(=O)NC(=O)CCc1cc(OC(C)C)nn1Cc1ccc(Cl)cc1Cl
1.60
